system: Plasma; assay: Metabolic stability in mouse plasma at 5 uM after 2 hrs by ZQ-LC-MS analysis; assay type: ADME, cell-free
valueType: Stability

Use these answered entries as a reference point.
CN(C)c1ccc(C2=C[C@@H]3C[C@@]4(OC(=O)C=C24)[C@H]2CCCCN32)cc1    Stable
O=C1C=C2C=C[C@@H]3C[C@@]2(O1)[C@H]1CCCCN31    Stable
CN(C)c1ccc(C#CC2=C[C@@H]3C[C@@]4(OC(=O)C=C24)[C@H]2CCCCN32)cc1    Unstable
COc1ccc(C#CC2=C[C@@H]3C[C@@]4(OC(=O)C=C24)[C@H]2CCCCN32)cc1    Unstable

Then this molecule:
Q. Identify the measured Stability of O=C1C=C2C(C#Cc3ccccc3)=C[C@@H]3C[C@@]2(O1)[C@H]1CCCCN31 for Plasma.
A. Unstable

---

test: Antiproliferative activity against human HCT116 cells assessed as reduction in cell viability after 72 hrs by ATPlite assay; assay type: functional, cell-based; conditions: HCT-116, 72 h
valueType: IC50 (nM)
I only need the number, in nM, no unit after it.

The examples below pair each entry with its known result.
COc1ccc(C#CC2=C[C@@H]3C[C@@]4(OC(=O)C=C24)[C@H]2CCCCN32)cc1    340
CC(C)(C)OC(=O)NCC#CC1=C[C@@H]2C[C@@]3(OC(=O)C=C13)[C@H]1CCCCN21    1660
CN(C)c1ccc(C#CC2=C[C@@H]3C[C@@]4(OC(=O)C=C24)[C@H]2CCCCN32)cc1    420
O=C1C=C2C(C#Cc3ccc(F)cc3)=C[C@@H]3C[C@@]2(O1)[C@H]1CCCCN31    2470

Now look at this one.
Q. Field request: IC50 | item: CC[C@@]1(O)C(=O)OCc2c1cc1n(c2=O)Cc2cc3ccccc3nc2-1 [CAMPTOTHECIN]
A. 3

---

system: Liver microsome; experiment: Metabolic stability in human liver microsomes at 2 uM after 1 hr by ZQ-LC-MS analysis; assay type: ADME
valueType: Stability

CN(C)c1ccc(C2=C[C@@H]3C[C@@]4(OC(=O)C=C24)[C@H]2CCCCN32)cc1    Unstable
O=C1C=C2C(C#CCCCCl)=C[C@@H]3C[C@@]2(O1)[C@H]1CCCCN31    Unstable
O=C1C=C2C(C#Cc3ccccc3)=C[C@@H]3C[C@@]2(O1)[C@H]1CCCCN31    Unstable
CN(C)c1ccc(C#CC2=C[C@@H]3C[C@@]4(OC(=O)C=C24)[C@H]2CCCCN32)cc1    Unstable

---

assay: Antiproliferative activity against human HCT116 cells assessed as reduction in cell viability at 1 uM after 72 hrs by ATPlite assay; type: functional; settings: HCT-116, 72 h, read-out: GI
valueType: inhibition of growth at 1 µM (%)
# value in %; strip the unit string

Observe how each entry below is paired with its result.
O=C1C=C2C=C[C@@H]3C[C@@]2(O1)[C@H]1CCCCN31    7.6
CC(C)(C)c1ccc(C2=C[C@@H]3C[C@@]4(OC(=O)C=C24)[C@H]2CCCCN32)cc1    0.9
O=C1C=C2C(C#Cc3ccc(N4CCCCC4)cc3)=C[C@@H]3C[C@@]2(O1)[C@H]1CCCCN31    98
CC(C)(O)C#CC1=C[C@@H]2C[C@@]3(OC(=O)C=C13)[C@H]1CCCCN21    10.3
O=C1C=C2C(C#Cc3ccccc3)=C[C@@H]3C[C@@]2(O1)[C@H]1CCCCN31    91.9

Q. What value of inhibition of growth at 1 µM has been reported for the following compound? O=C1C=C2C(c3ccc(F)cc3)=C[C@@H]3C[C@@]2(O1)[C@H]1CCCCN31
A. 2.1

---

system: Plasma; experiment: Metabolic stability in rat plasma at 5 uM after 2 hrs by ZQ-LC-MS analysis; assay type: ADME, cell-free
valueType: Stability

Use these answered entries as a reference point.
CN(C)c1ccc(C2=C[C@@H]3C[C@@]4(OC(=O)C=C24)[C@H]2CCCCN32)cc1    Stable
CN(C)c1ccc(C#CC2=C[C@@H]3C[C@@]4(OC(=O)C=C24)[C@H]2CCCCN32)cc1    Unstable
COc1ccc(C#CC2=C[C@@H]3C[C@@]4(OC(=O)C=C24)[C@H]2CCCCN32)cc1    Unstable
O=C1C=C2C(C#Cc3ccccc3)=C[C@@H]3C[C@@]2(O1)[C@H]1CCCCN31    Unstable

Now turn to the next compound.
Q. Using the record for O=C1C=C2C=C[C@@H]3C[C@@]2(O1)[C@H]1CCCCN31 [SECURININE] , report its Stability.
A. Stable

---

test system: Plasma; assay: Metabolic stability in human plasma at 5 uM after 2 hrs by ZQ-LC-MS analysis; format: ADME, cell-free
valueType: Stability

CN(C)c1ccc(C2=C[C@@H]3C[C@@]4(OC(=O)C=C24)[C@H]2CCCCN32)cc1    Stable
O=C1C=C2C(C#Cc3ccccc3)=C[C@@H]3C[C@@]2(O1)[C@H]1CCCCN31    Unstable
O=C1C=C2C=C[C@@H]3C[C@@]2(O1)[C@H]1CCCCN31    Stable
CN(C)c1ccc(C#CC2=C[C@@H]3C[C@@]4(OC(=O)C=C24)[C@H]2CCCCN32)cc1    Unstable

Q. Look at this compound and give its reported Stability. COc1ccc(C#CC2=C[C@@H]3C[C@@]4(OC(=O)C=C24)[C@H]2CCCCN32)cc1
A. Unstable

---

assay: Antiproliferative activity against human HCT116 cells assessed as reduction in cell viability at 1 uM after 72 hrs by ATPlite assay; assay type: functional; conditions: HCT-116, 72 h, read-out: GI
valueType: inhibition of growth at 1 µM (%)
The response must be a number in % with no trailing unit.

Q. Which inhibition of growth at 1 µM is reported for this molecule? O=C1C=C2C(C#CCCCO)=C[C@@H]3C[C@@]2(O1)[C@H]1CCCCN31
A. 5.9

---

Entries and their inhibition of growth at 1 µM
assay: Antiproliferative activity against human HCT116 cells assessed as reduction in cell viability at 1 uM after 72 hrs by ATPlite assay; format: functional; conditions: HCT-116, 72 h, read-out: GI
Provide the reading as a plain figure in %.

Q. Name the reported inhibition of growth at 1 µM value associated with the molecule CC(C)(C)OC(=O)NC1CCC(C#CC2=C[C@@H]3C[C@@]4(OC(=O)C=C24)[C@H]2CCCCN32)CC1 (some centres not stated)
A. 93.4

Q. Returns the measured inhibition of growth at 1 µM for the input molecule. Input: Cc1cccc(C2=C[C@@H]3C[C@@]4(OC(=O)C=C24)[C@H]2CCCCN32)c1
A. 5.7

Q. Given the molecule O=C1C=C2C(C#CC3CCCCC3)=C[C@@H]3C[C@@]2(O1)[C@H]1CCCCN31 , what is its reported inhibition of growth at 1 µM?
A. 49.3

---

test: Antiproliferative activity against human HCT116 cells assessed as reduction in cell viability at 1 uM after 72 hrs by ATPlite assay; assay type: functional; conditions: HCT-116, 72 h, read-out: GI
Each entry below carries its recorded inhibition of growth at 1 µM.
// unit must come after the numeric part

Past entries and their recorded results:
O=C1C=C2C(C#CC3CC3)=C[C@@H]3C[C@@]2(O1)[C@H]1CCCCN31    5.9%
CC(C)(C)C#CC1=C[C@@H]2C[C@@]3(OC(=O)C=C13)[C@H]1CCCCN21    25.2%
COc1cccc2c1C(=O)c1c(O)c3c(c(O)c1C2=O)C[C@@](O)(C(=O)CO)C[C@@H]3O[C@H]1C[C@H](N)[C@H](O)[C@H](C)O1    99.6%
O=C1C=C2C(c3ccccc3)=C[C@@H]3C[C@@]2(O1)[C@H]1CCCCN31    -3.8%
CC(C)(C)OC(=O)NCCCC#CC1=C[C@@H]2C[C@@]3(OC(=O)C=C13)[C@H]1CCCCN21    60.1%

Q. Query (molecule): O=C1C=C2C(C#CCCCCl)=C[C@@H]3C[C@@]2(O1)[C@H]1CCCCN31 ; field requested: inhibition of growth at 1 µM
A. 6.1%

Q. Look up inhibition of growth at 1 µM for this molecule: O=C1C=C2C(c3ccc(C(F)(F)F)cc3)=C[C@@H]3C[C@@]2(O1)[C@H]1CCCCN31
A. -1.5%

---

test: Antiproliferative activity against human HCT116 cells assessed as reduction in cell viability at 1 uM after 72 hrs by ATPlite assay; format: functional; details: HCT-116, 72 h, read-out: GI
Parameter threshold = 60%. Response is T when inhibition of growth at 1 µM meets or exceeds it, else F.

These recorded examples may help you get a feel for the data.
O=Cc1ccc(C2=C[C@@H]3C[C@@]4(OC(=O)C=C24)[C@H]2CCCCN32)cc1    F
COc1ccc(C#CC2=C[C@@H]3C[C@@]4(OC(=O)C=C24)[C@H]2CCCCN32)cc1    T
C[Si](C)(C)C#CC1=C[C@@H]2C[C@@]3(OC(=O)C=C13)[C@H]1CCCCN21    F

Turning now to a further record.
Q. // inclusive: inhibition of growth at 1 µM at least 60%? input: CCCCCC#CC1=C[C@@H]2C[C@@]3(OC(=O)C=C13)[C@H]1CCCCN21
A. F
